# target of assay: T1, BUD32;CGI121 (Arabidopsis thaliana;Arabidopsis …, UniProt Q94K14;Q6NMZ4 1-226;1-172, |)
# T1 sequence 1: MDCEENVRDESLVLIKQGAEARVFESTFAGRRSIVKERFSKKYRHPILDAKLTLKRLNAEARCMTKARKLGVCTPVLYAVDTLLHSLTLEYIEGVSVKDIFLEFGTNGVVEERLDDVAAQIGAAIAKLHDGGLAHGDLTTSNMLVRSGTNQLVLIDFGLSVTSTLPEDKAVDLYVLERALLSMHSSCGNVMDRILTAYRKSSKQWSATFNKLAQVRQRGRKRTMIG
# T1 sequence 2: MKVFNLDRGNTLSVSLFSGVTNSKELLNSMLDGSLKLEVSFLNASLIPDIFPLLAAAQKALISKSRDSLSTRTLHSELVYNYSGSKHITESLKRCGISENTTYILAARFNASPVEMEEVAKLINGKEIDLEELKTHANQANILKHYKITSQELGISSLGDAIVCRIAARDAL
# assay name: MST; MST: 20 mM PBS pH 7.5, 300 mM NaCl, 0.05% Tween 20, 25 C, 50 nM RNA; EMSA: 20 mM Tris-HCl pH 7.5, 300 mM NaCl, 5 mM b-mercaptoethanol, 20% glycerol, agarose gel in Tris-glycine pH 8.0 (8.5 for FAM-RNA), 4 C
# condition summary: protein: recombinant;recombinant; tags: none (6His on partner CGI121);6His (C-term); copies: 1;1; label: 5' 6-FAM; tRNA cloverleaf
parameter: Kd (µM)
Numbers only, in µM.

Report Kd for 5'-6FAM-tRNAArgCCU (structured_RNA) RNA: GCGCCUGUAGCUCAGUGGAUAGAGCGUCUGUUUCCUAAGCAGAAGGUCGUAGGUUCGACCCCUACCUGGCGCGCCA please.
61.6
